Tested on: Wolbachia pipientis
Experiment: Anti-Wolbachia Cell-Based Screen
Format: functional
Parameters: scale not given: in the data most compounds retested in dose-response had high values
Details: 5 µM
Screen size: about 48,000 compounds; about 13,000 (27%) showed an effect of 50% or more. Some of the results follow.
quantity: Percent Effect (%)
# output: bare number, implied unit %

{"columns": ["compound", "Percent Effect (%)"],
 "data": [
  ["CN(C)Cc1nnc2n1CCN(Cc1cccnc1)C2", -0.7549],
  ["CN(C)C(C(=O)N1CCC(C#N)CC1)c1ccccc1F (stereo unspecified)", -0.3171],
  ["Cc1ccc2c(n1)N(CC1CC1)CCN(Cc1cnn(C)c1)C2", 122.1],
  ["COCCN1CCN(C(=O)C2CC=CC2)Cc2cccnc21", -8.576],
  ["Cc1ccc2c(n1)N(Cc1cccnc1)CCN(Cc1cnn(C)c1)C2", 105.8]
]}

Continue with the next compound.
// query Quick one: give measured Percent Effect for CCNC(=O)CN1CCCN(C(=O)C2CCCc3[nH]ncc32)CC1 (stereo unspecified)
// result 2.738

* * *

System: Wolbachia pipientis
Experiment: Anti-Wolbachia Cell-Based Screen
Assay type: functional
Parameters: scale not given: in the data most compounds retested in dose-response had high values
Conditions: 5 µM
The whole screen tested about 48,000 compounds, of which about 13,000 (27%) showed an effect of 50% or more. Some of the results follow.
Percent Effect for assorted molecules
Quick reminder: number only, in %, skip the unit.

Examples with their reported Percent Effect follow.
{"columns": ["molecule", "assay.result"],
 "data": [
  ["CC(C)N(C)C(=O)CN1C(=O)OC[C@@H]1c1ccccc1", -15.23],
  ["CCN1CC(C(=O)N2CCC(Oc3ccccc3C)CC2)CC1=O (stereo unspecified)", -3.691]
]}

// query Specify reported Percent Effect for the molecule shown: CN(C)CCN(C)C(=O)Nc1cc(F)cc(N2CCCC2)c1
// result 23.94

// query // fetch Percent Effect given entry CCn1cc(NC(=O)CN2CCC(Oc3ccccc3C)CC2)c(C)n1
// result 103.8

* * *

Tested on: Wolbachia pipientis
Experiment: Anti-Wolbachia Cell-Based Screen
Format: functional
Design: scale not given: in the data most compounds retested in dose-response had high values
Details: 5 µM
The campaign covered roughly 48,000 compounds. About 13,000 (27%) showed an effect of 50% or more. The list shows a part of the results.
quantity: Percent Effect

Reference set (2 entries):
{"columns": ["molecule", "Percent Effect"],
 "data": [
  ["Cc1ccc([C@@H]2CN(C(=O)CCc3ccco3)C[C@H]2N(C)C)cc1", "-4.926%"],
  ["O=C(c1ccc(-n2cnnc2)cc1)N1CCCC(n2ccnc2)C1 (stereo unspecified)", "107.8%"]
]}

// query Provide one value: measured Percent Effect of CSCCCN1C[C@H]2CC[C@@H]1CN(Cc1[nH]cnc1C)C2
// result 27.65%

// query Tell me its Percent Effect given CCc1nccn1C1CCCN(C(=O)c2cncn2-c2ccccc2)C1 (stereo unspecified) as the entry.
// result -5.728%

* * *

Entries annotated with measured Percent Effect
System: Wolbachia pipientis
Experiment: Anti-Wolbachia Cell-Based Screen
Type: functional
Parameters: scale not given: in the data most compounds retested in dose-response had high values
Conditions: 5 µM
Out of some 48,000 compounds screened, about 13,000 (27%) showed an effect of 50% or more. This is one part of the list.
Supply the numeric figure in %, leaving out any unit text.

{"columns": ["molecule", "unit.annotation", "Percent Effect"],
 "data": [
  ["CC(C)Cc1cc(NC(=O)c2ccc3[nH]nnc3c2)n(C)n1", "%", -17.03],
  ["Cc1nc(C)n(CC2CCCCN2CCCC#N)n1 (configuration not stated)", "%", 3.604],
  ["COCc1ncc(CN2CCC(Oc3ccccc3OC)CC2)cn1", "%", 3.684],
  ["CCC(CO)N(Cc1ccc(C(=O)O)cc1)Cc1ccsc1 (configuration not stated)", "%", 4.353],
  ["CCOc1cc(C(=O)N(C)C)ccc1NC(=O)C(C)c1ccsc1 (configuration not stated)", "%", -4.912],
  ["CC(C)N1CCCn2nc(C(=O)NCCc3c[nH]cn3)cc2C1", "%", -16.95],
  ["COCc1cc(N2CCN(c3ccc(Cl)cn3)CC2)n2nccc2n1", "%", -13.5],
  ["Cc1cc(NC(=O)Cn2nc(C)c(C#N)c2N)ccc1Br", "%", -7.247],
  ["CCC(C)N(Cc1ccsc1)C(=O)c1ccc(CO)cc1 (configuration not stated)", "%", 113.9],
  ["CCCC(C)NCc1cnc(-c2cccc(C)c2)nc1 (configuration not stated)", "%", 4.812]
]}

// query Find the measured Percent Effect of CC(=O)N(Cc1ccsc1)c1ccccc1 with Wolbachia pipientis as test system.
// result -9.96

// query Give Percent Effect for CN(C)c1cccc(CNC(=O)Nc2ccc3[nH]nnc3c2)n1 tested on Wolbachia pipientis.
// result 0.1018

* * *

Catalogue of compounds with associated Percent Effect
Test system: Wolbachia pipientis
Test: Anti-Wolbachia Cell-Based Screen
Assay type: functional
Parameters: scale not given: in the data most compounds retested in dose-response had high values
Details: 5 µM
About 13,000 (27%) of roughly 48,000 compounds showed an effect of 50% or more. The list shows a part of the results.
Report as a plain number; the unit % is understood.

// query Answer with reported Percent Effect of Cc1ccc(OCC(O)Cn2ncc3cnn(C)c(=O)c32)cc1 (centres undefined)
// result -11.22

* * *

System: Wolbachia pipientis
Assay: Anti-Wolbachia Cell-Based Screen
Type: functional
Set-up: scale not given: in the data most compounds retested in dose-response had high values
Conditions: 5 µM
Out of some 48,000 compounds screened, about 13,000 (27%) showed an effect of 50% or more. The list shows a part of the results.
quantity: Percent Effect (%)
Write it as a number; the unit % goes unstated.

{"columns": ["molecule", "quantity", "unit.annotation", "assay.result"],
 "data": [
  ["COCc1cc(C[C@@H]2CC[C@H](O)[C@@H](CN(C)C)O2)no1", "Percent Effect", "%", 7.016],
  ["COc1cccc(OCC2CCCN(C(=O)c3ncc(F)cc3F)C2)c1 (stereo not drawn)", "Percent Effect", "%", -61.26],
  ["Cc1cccc2[nH]c(C3CCCN3Cc3ccc(CO)o3)nc12 (stereo not drawn)", "Percent Effect", "%", -7.499],
  ["O=C(c1ccnnc1)N1CC[C@H]2[C@H]1CCN2S(=O)(=O)C1CC1", "Percent Effect", "%", -8.086],
  ["O=S(=O)(CCCN1CCCC(Cn2cncn2)C1)c1ccccc1 (stereo not drawn)", "Percent Effect", "%", 92.49],
  ["N#Cc1ccccc1OCCN1CCCCC1Cn1cncn1 (stereo not drawn)", "Percent Effect", "%", -1.923],
  ["O=C(NS(=O)(=O)c1cccc(C(F)(F)F)c1)c1cscn1", "Percent Effect", "%", 5.239],
  ["O=C1CCCN1CCN1CCCCC1Cn1cncn1 (stereo not drawn)", "Percent Effect", "%", 1.495],
  ["CNc1nc(CNC(=O)Nc2cccc(COCCOC(C)C)c2)cs1", "Percent Effect", "%", -6.236],
  ["COCCN1CCCC2(CCN(Cc3noc(C4CCCC4)n3)C2)C1=O (stereo not drawn)", "Percent Effect", "%", 5.891]
]}

// query Read off the recorded Percent Effect for CCOC(C)C(=O)Nc1ccc(Sc2nncn2C)c(Cl)c1 (stereo not drawn)
// result -6.719

// query Provide only the value of recorded Percent Effect for COc1ccc(N2CCN(C(=O)CCn3nnnc3C)CC2(C)C)cc1
// result 5.117

// query Note Percent Effect for the molecule shown: CCOCc1cncc2c1CCN(C(=O)c1cscn1)C2.O=C(O)C(F)(F)F
// result 95.41

// query Let me know recorded Percent Effect for O=S(=O)(CCN1CCOC(Cn2cncn2)C1)c1ccccc1 (stereo not drawn) , thanks.
// result -0.6358

// query Look up and state reported Percent Effect for CN(CC(=O)Nc1nc2c(s1)CCC2)C(=O)c1cccs1
// result 12.75

* * *

Listed here: items and their measured Percent Effect.
System: Wolbachia pipientis
Assay: Anti-Wolbachia Cell-Based Screen
Type: functional
Parameters: scale not given: in the data most compounds retested in dose-response had high values
Conditions: 5 µM
Screen size: about 48,000 compounds; about 13,000 (27%) showed an effect of 50% or more. This is one part of the list.
Express your answer in %, writing the number without its unit.

{"columns": ["molecule", "assay.result"],
 "data": [
  ["CC(=O)N1CCCC1C(=O)NCCOc1ccc(C(C)C)cc1 (stereo not given)", 97.98],
  ["CN(Cc1ccccc1O)C(=O)Nc1cc(F)cc(N2CCCC2)c1", -6.524],
  ["c1ccc(C(CC2CN(Cc3ncc[nH]3)CCO2)c2ccccc2)cc1 (stereo not given)", 116.4],
  ["CCn1ccnc1CN(C)C1CCCN(Cc2ccccc2F)C1 (stereo not given)", -12.96]
]}

// query Give Percent Effect only, for O=c1[nH]c(N2CCN(C3CC3)CC2)nc2c1cnn2-c1ccccc1 , using Wolbachia pipientis data.
// result 4.194

// query Give reported Percent Effect for c1ccc(CCCC2CN(Cc3ncc[nH]3)CCO2)cc1 (stereo not given) (Wolbachia pipientis)
// result 98.97

// query Please report Percent Effect with Wolbachia pipientis for item O=C(NCCC1CN(Cc2c[nH]cn2)CCO1)Nc1ccccc1 (stereo not given) .
// result -0.1872

// query Output reported Percent Effect of the molecule O=C(CCc1cccs1)N1CCCC(N2CCNC2=O)C1 (stereo not given) on Wolbachia pipientis.
// result 103.5

// query Specify Percent Effect for O=C(CCc1nccs1)N1CCCC(N2CCNC2=O)C1 (stereo not given) , system Wolbachia pipientis.
// result -19.11

// query // fetch Percent Effect for O=C(CCCc1cccs1)N1CCC(N2CCNC2=O)CC1 ; system: Wolbachia pipientis
// result 94.13

// query Under Wolbachia pipientis: report Percent Effect of CCc1nn(C)c(Cl)c1CN1CCCC2(C1)CN(C)C(=O)O2 (stereo not given) .
// result 101.8

// query Provide Percent Effect, system Wolbachia pipientis, entry CC(=O)N1CCN(C(=O)CCOc2ccc(C(C)C)cc2)CC1
// result -11.35

// query Give Percent Effect; test system Wolbachia pipientis; molecule Cc1sc2nc(CCN)nc(N3CCC(N4CCCC4)CC3)c2c1C
// result -8.408

// query For Wolbachia pipientis, give the measured Percent Effect of the entry CC(C)CCNC(=O)C1CCCN1C(=O)Nc1cccc(F)c1 (stereo not given)
// result 134.2

// query Please look at CCc1nn(C)c(Cl)c1CN1C[C@H](NC(=O)CCO)[C@@H](C(C)C)C1 and tell me its recorded Percent Effect on Wolbachia pipientis.
// result -7.141

// query Would you please give the reported Percent Effect of O=C(CCc1nccs1)N1CCC(N2CCNC2=O)CC1 with Wolbachia pipientis?
// result -13.84

// query # return Percent Effect for O=C(CCc1ccsc1)N1CCC(N2CCNC2=O)CC1 , test system: Wolbachia pipientis
// result 88.84
